Target: QKF-KAT6B (Homo sapiens, UniProt Q8WYB5)
Construct: purchased SignalChem K315-381BG
Sequence (Q8WYB5 whole entry): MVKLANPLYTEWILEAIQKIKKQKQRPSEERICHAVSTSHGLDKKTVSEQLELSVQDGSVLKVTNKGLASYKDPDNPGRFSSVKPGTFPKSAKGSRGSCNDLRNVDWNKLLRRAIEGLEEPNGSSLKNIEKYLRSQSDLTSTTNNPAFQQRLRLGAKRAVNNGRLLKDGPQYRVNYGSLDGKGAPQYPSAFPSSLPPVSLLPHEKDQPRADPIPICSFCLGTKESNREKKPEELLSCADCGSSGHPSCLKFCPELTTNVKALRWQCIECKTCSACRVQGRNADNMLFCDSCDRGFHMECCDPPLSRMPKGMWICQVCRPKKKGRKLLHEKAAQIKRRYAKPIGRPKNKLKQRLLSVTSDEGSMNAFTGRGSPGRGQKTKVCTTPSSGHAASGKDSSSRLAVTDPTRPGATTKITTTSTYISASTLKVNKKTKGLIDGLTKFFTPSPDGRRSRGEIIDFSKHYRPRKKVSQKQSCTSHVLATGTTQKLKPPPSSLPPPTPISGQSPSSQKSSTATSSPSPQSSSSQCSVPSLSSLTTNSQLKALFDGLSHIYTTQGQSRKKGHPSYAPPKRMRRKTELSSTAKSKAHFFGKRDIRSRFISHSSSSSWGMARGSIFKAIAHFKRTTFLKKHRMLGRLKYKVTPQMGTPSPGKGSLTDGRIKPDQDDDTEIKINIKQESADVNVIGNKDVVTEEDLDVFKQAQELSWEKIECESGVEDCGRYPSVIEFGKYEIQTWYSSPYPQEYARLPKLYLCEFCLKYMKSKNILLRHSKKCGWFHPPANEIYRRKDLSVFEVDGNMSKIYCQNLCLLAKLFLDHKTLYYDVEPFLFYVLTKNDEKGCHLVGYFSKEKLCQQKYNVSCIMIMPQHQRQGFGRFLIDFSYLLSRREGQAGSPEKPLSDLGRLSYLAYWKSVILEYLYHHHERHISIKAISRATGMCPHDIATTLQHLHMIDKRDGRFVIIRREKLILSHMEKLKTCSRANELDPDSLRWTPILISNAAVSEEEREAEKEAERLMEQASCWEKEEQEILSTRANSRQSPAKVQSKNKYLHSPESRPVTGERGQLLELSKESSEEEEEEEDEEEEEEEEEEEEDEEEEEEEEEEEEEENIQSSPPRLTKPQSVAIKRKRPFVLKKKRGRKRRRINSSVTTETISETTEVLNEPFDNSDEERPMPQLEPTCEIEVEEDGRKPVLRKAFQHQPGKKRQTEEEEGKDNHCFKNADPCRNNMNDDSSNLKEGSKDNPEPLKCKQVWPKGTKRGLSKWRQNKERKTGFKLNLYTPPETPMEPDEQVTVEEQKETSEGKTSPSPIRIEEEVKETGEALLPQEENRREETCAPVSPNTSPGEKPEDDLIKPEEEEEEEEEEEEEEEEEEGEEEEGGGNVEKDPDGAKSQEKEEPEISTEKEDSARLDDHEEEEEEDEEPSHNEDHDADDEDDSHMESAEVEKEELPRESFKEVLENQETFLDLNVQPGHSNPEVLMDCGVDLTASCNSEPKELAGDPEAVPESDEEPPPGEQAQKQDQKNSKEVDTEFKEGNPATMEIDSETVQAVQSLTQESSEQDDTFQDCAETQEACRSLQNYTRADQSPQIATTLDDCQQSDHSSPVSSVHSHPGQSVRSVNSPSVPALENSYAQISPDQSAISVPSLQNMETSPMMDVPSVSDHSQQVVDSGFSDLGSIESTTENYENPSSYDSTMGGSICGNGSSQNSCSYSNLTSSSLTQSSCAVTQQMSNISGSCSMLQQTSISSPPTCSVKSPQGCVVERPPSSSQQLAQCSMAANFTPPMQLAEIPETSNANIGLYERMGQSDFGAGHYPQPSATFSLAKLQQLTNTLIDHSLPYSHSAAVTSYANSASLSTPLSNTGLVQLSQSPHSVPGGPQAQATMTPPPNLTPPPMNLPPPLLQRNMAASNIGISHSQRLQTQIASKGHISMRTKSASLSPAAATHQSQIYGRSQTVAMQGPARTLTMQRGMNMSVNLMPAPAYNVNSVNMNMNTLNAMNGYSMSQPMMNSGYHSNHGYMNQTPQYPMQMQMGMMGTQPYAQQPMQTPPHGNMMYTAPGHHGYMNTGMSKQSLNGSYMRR
Assay: Revised Acetyltransferase Biochemical Assay, KAT6B
Conditions: 8 nM KAT6B, 1 μM AcCoA, 100 nM histone H3.1, 90 min
One threshold, 60 nM, splits the recorded IC50 values: lower ones are Condition met, equal or higher ones are Condition not met.

[[record]]
molecule = "O=C(NCC(c1ccccc1)c1nncs1)C1=Nc2ccc(I)cc2S(=O)(=O)N1 (stereo not drawn)"
label = "Condition met"

[[record]]
molecule = "O=C(NCC(c1ncco1)c1ccccc1OC(F)F)C1=Nc2ccc(I)cc2S(=O)(=O)N1 (stereo not drawn)"
label = "Condition not met"


Now turn to the next molecule.
Report whether reported IC50 is lower than 60 nM (strictly) for O=C(NCC(F)(F)c1ccccc1)C1=Nc2ccc(I)cc2S(=O)(=O)N1
Condition not met

====

Biological target: MOZ-KAT6A (Homo sapiens, UniProt Q92794, A567V)
Construct: encoding amino acid residues 507 to 778 (Uniprot Q92794-1) of human KAT6A; made in house; host or cells: E. coli BL21 DE3
Sequence (Q92794 507-778 A567V limits assumed): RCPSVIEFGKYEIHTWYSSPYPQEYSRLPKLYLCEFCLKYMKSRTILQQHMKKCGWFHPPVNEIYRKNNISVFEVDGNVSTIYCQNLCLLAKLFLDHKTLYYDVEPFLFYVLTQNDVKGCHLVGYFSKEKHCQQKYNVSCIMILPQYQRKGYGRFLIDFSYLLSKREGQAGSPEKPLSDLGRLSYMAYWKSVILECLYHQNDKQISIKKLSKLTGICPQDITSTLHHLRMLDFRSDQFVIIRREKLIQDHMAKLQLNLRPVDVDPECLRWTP
Assay: Revised Acetyltransferase Biochemical Assay, KAT6A
Details: Table 8 (MOZ-KAT6A), 1 μM Acetyl coenzyme A
Please map values of IC50 to classes as shown: low range (below 20 nM), mid range (20 nM to below 80 nM), high range (80 nM or more)

Consider the following illustrative entries.
[[record]]
compound = "Nc1nnc(C(CNC(=O)C2=Nc3ccc(I)cc3S(=O)(=O)N2)c2ccccc2)o1 (stereo not drawn)"
test_system = "MOZ-KAT6A (Homo sapiens, UniProt Q92794, A567V)"
label = "mid range"

[[record]]
compound = "O=C(NCC(c1ccccc1)c1ncco1)C1=Nc2ccc(O)cc2S(=O)(=O)N1 (stereo not drawn)"
test_system = "MOZ-KAT6A (Homo sapiens, UniProt Q92794, A567V)"
label = "low range"

[[record]]
compound = "O=C(NCC(c1ccccc1)c1ncco1)C1=Nc2ccc(OC(F)(F)F)cc2S(=O)(=O)N1 (stereo not drawn)"
test_system = "MOZ-KAT6A (Homo sapiens, UniProt Q92794, A567V)"
label = "mid range"

[[record]]
compound = "COC(=O)c1ccc2c(c1)S(=O)(=O)NC(C(=O)NCC(c1ccccc1)c1ncco1)=N2 (stereo not drawn)"
test_system = "MOZ-KAT6A (Homo sapiens, UniProt Q92794, A567V)"
label = "high range"


Now turn to the next compound.
Place this compound in its band: O=C(NCC(c1ncco1)c1ccccc1O)C1=Nc2ccc(I)cc2S(=O)(=O)N1 (stereo not drawn)
low range

====

Provide the reported IC50 of each item.
Target: QKF-KAT6B (Homo sapiens, UniProt Q8WYB5)
Construct: purchased SignalChem K315-381BG
Test: Acetyltransferase biochemical assay (AlphaScreen), KAT6B
Details: Table 5 (QKF-KAT6B); 0.4 μM Acetyl coenzyme A, histone H3.1, 8 nM enzyme
Numbers only, in nM.

[[record]]
compound = "Cn1cc(-c2ccc3c(c2)S(=O)(=O)NC(C(=O)NCC(c2ccccc2)c2ccccc2)=N3)cn1"
reported_metric = "IC50"
unit_string = "nM"
result = 268


Turning to the following compound.
Which IC50 reading was recorded for the compound O=C(NCC(c1ccccc1)c1ncco1)C1=Nc2ccccc2S(=O)(=O)N1 (centres unmarked) ?
122

====

Provide the reported pIC50 of each item.
Target: TIP60-KAT5 (Homo sapiens)
Construct: encoding amino acid residues 2 to 461 (Uniprot Q92993-2) of human KAT5 isoform; made in house; host or cells: E. coli BL21 DE3
Sequence (Q92993 2-461 isoform Q92993-2): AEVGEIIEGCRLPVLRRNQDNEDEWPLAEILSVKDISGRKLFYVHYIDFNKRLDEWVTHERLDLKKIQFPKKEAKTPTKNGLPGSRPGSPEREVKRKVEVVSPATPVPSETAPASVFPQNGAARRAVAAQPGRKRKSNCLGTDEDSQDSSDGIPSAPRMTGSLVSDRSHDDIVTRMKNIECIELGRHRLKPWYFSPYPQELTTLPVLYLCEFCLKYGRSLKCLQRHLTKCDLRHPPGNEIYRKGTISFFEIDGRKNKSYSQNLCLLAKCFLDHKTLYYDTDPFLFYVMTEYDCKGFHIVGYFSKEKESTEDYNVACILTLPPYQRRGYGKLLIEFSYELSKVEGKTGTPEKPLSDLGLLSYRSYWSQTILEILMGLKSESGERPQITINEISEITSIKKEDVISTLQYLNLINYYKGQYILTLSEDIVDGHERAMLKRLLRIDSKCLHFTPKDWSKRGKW
Assay: Acetyltransferase biochemical assay (AlphaScreen), KAT5
Details: Table 1 (TIP60-KAT5); 0.4 μM Acetyl coenzyme A, histone H4, 10 nM enzyme
Numbers only, as −log10 of the molar value.

[[record]]
molecule = "O=C(NCCc1ccccc1O)C1=Nc2ccc(I)cc2S(=O)(=O)N1"
result = 6.02

[[record]]
molecule = "O=C(NCC(c1ccccc1)c1ncco1)C1=Nc2ccccc2S(=O)(=O)N1 (single isomer, unassigned) [Example 136]"
result = 4.56


Report pIC50 for each item below.
1. O=C(NCC(OC(=O)N1CCC1)c1ccccc1)C1=Nc2ccccc2S(=O)(=O)N1 (centres unmarked)
2. CN(C)C(=O)c1ccccc1CCNC(=O)C1=Nc2ccc(I)cc2S(=O)(=O)N1
3. [C-]#[N+]c1ccc2c(c1)S(=O)(=O)NC(C(=O)NCC(c1ccccc1)c1ncco1)=N2 (single isomer, unassigned) [Example 142]
4. O=C(NCC(c1ccccc1)c1ncco1)C1=Nc2ccc(-c3nccs3)cc2S(=O)(=O)N1 (centres unmarked)

1: 4.60; 2: 4.78; 3: 5.37; 4: 5.66

Values compiled from patent US20210380548A1.
